// data source = patent US9255072B2

System: MOLM-13 cell
method: MTS cell viability assay
Assay type: cell-based
measurement.setup: Homo sapiens, MOLM-13, 72 h, table of representative values
value.kind: GI50 (nM)

>>> test_result("CN1CCN(Cc2ccc(C(=O)Nc3cc(-c4ccc(CNC(=O)Nc5cc(C6CC6)on5)cc4)n[nH]3)cc2)CC1 [Compound 62d]")
3
>>> test_result("CCc1cc(NC(=O)Nc2ccc(-c3cc(NC(=O)c4ccc(OCCN5CCOCC5)cc4)[nH]n3)cc2C)no1 [Compound 46b]")
1
>>> test_result("CCc1cc(NC(=O)Nc2ccc(-c3cnc(Nc4cc(N5CCC(N)C5)nc(C)n4)s3)cc2)no1 (stereo not shown) [Compound 119]")
3
>>> test_result("Cc1cc(-c2cc(NC(=O)c3ccc(OCCN4CCOCC4)cc3)[nH]n2)ccc1NC(=O)Nc1cc(C2CC2)on1 [Compound 46c]")
2
>>> test_result("O=C(NCc1ccc(-c2cc(NC(=O)c3ccc(OCCN4CCOCC4)cc3)[nH]n2)cc1)Nc1cc(C2CC2)on1 [Compound 59d]")
6
>>> test_result("CCc1cc(NC(=O)NCc2ccc(-c3cc(NC(=O)c4ccc(CN5CCN(C)CC5)cc4)[nH]n3)cc2)no1 [Compound 62b]")
2
>>> test_result("CCc1cc(NC(=O)Nc2ccc(-c3cnc(Nc4cc(N5CCN(CC)CC5)nc(C)n4)s3)cc2)no1 [Compound 112]")
2

----------
assayed.target: VEGFR2 (Homo sapiens, UniProt P35968)
Construct: GST-VEGFR2 (residues V789-V1356); GST (N); made in house; host or cells: Sf9 insect cells
Sequence (P35968 789-1356): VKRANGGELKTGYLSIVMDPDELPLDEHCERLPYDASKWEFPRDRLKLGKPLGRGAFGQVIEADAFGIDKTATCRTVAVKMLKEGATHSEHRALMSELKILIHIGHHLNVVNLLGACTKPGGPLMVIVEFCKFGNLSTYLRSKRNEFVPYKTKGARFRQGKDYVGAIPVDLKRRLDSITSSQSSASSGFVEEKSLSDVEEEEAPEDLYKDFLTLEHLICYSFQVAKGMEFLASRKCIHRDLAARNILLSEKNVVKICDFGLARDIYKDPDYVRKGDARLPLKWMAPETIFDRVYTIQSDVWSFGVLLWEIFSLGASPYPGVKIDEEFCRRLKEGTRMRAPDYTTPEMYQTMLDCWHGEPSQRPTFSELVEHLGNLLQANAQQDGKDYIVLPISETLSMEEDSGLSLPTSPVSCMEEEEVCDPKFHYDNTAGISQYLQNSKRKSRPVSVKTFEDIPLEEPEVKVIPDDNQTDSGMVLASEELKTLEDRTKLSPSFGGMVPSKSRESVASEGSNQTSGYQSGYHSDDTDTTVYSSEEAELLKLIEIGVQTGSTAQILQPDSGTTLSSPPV
method: VEGFR2 Kinase-Glo kinase assay
Type: biochemical
measurement.setup: VEGFR2 assay, 1 μM ATP, ranges in nM; read-out: IC50
value.kind: IC50

>>> test_result("O=C(NCc1ccc(-c2cc(NC(=O)c3ccc(OCCN4CCCC4)cc3)[nH]n2)cc1)OCc1ccccc1")
"55 to 400 nM"
>>> test_result("Cc1cccc(S(=O)(=O)Nc2cccc(-c3cc(NC(=O)c4ccc(N5CCN(C)CC5)cc4)[nH]n3)c2)c1")
"55 to 400 nM"
>>> test_result("Cc1nc(Nc2cc(-c3cccc(NS(=O)(=O)c4ccccc4)c3)n[nH]2)cc(N2CCN(C)CC2)n1")
"55 to 400 nM"
>>> test_result("CN1CCN(c2ccc(C(=O)Nc3cc(-c4cccc(NS(=O)(=O)c5ccccc5)c4)n[nH]3)cc2)CC1")
"55 to 400 nM"
>>> test_result("CCc1cc(NC(=O)Nc2ccc(-c3cnc(Nc4cc(N5CCN(CC)CC5)nc(C)n4)s3)cc2)no1")
"1 to 55 nM"
>>> test_result("CN1CCN(c2ccc(C(=O)Nc3cc(-c4ccc(CNC(=O)Nc5ccccc5)cc4)n[nH]3)cc2)CC1")
"1 to 55 nM"
